target: T1, prefusion-stabilized RSV F ectodomain (DS-Cav1), subtype B (respiratory syncytial virus subtype B); assay: BLI, IgG on sensor
T1 construct: extracellular domain; also called Prefusion subtype B
Recorded Kd by entry

Binder	Unit info	Kd
ADI-15006 (antibody, V domains shown, IgG; also called Antibody Number 125) VH: EVQLVESGPGLVKPSGTLSLTCTVSGDSMSDYYWSWIRQSPGRGLEWLGYIYYDGSTNYNPSLKGRGTISIDTSKSQFSLTLSSVKAADTAVYYCARGKYYDRGGYYLFYLDYWGQGILVTVSS VL: DIRLTQSPSSLSASVGDRVTITCRASQTIASYVNWYQQKPGKAPKLLIYAASSLQDGVPSRFSGSGSGTDFALTISSLQPEDFAIYFCQQSYSTPIFTFGPGTKVEIK	nM	4.2
ADI-15558 (antibody, V domains shown, IgG) VH: QVQLVQSGGEVKKPGASVKVSCKASGYTFTTYGISWVRQAPGHGLEWLGWISPKNGNTKYAQKVQGRVTMTIDPTTSTAYMELRSLRSDDTAMYYCARDYIVAIVAALPHGMDVWGQGTLVTVSS VL: QSVLTQPPSLSVSPGQTASISCSGDQLGNKYVCWYQQKPGQSPVLVIYQDSRRPSGVPERFSGSNSGNTATLTVGGTQPMDEADYYCQAWDSSIRVFGGGTKVTVL	nM	0.94
ADI-15563 (antibody, V domains shown, IgG) VH: EVQLVESGGGLVQPGRSLRLSCAASGFTFDDYAMHWVRQAPGKGLEWVSGISWNSGIVKYADSVKGRFTISRDNAKNSLYLQMNSLRTEDTALYYCVKDGYTSSWHSDYHYGLDVWGQGTTVTVSS VL: DIVMTQSPATLSLSPGDRATLSCRASQNVISNLAWYQQKPGQAPRLLIYTVSTRATGIPARFSGSGSGTDFTLTISSLQSEDFAVYYCQQYNNWPLTFGGGTKVEIK	nM	2.2
ADI-15571 (antibody, V domains shown, IgG) VH: QVQLVQSGAEVKKPGASVKVSCKASGYSFTDYYIHWVRQAPGQGLEWIGWINPNSGGTTFAQNFQGRVTMTRDTSISTAFLELSRLKSDDTAVYYCARDVLWLNGFWGLGTLVTVSS VL: QSVVTQPPSVSAAPGQKVTISCSGSSSNIGNNYVSWYQQFRGTAPKVLIYENNKRTSGIPDRFSGSKSGTSATLGITGLQTGDEADYYCGTWDSSLSTGPYVVFGGGTKLTVL	nM	25.7
